assay comment: Inhibition of HDAC
observation type: IC50 (nM)
Numeric only. Scale: nM

{"molecule": "CCCCCCCCCCCCOc1c(C/C=C(\\C)CCC(=O)NO)c(OC)c(C)c2c1C(=O)OC2", "unit symbol": "nM", "reported result": 500}

Quick note, IC50 for `COc1c(C)c2c(c(OC)c1C/C=C(\C)CCC(=O)NO)C(=O)OC2` landed at 900

`COc1c(C)c2c(c(OC(C)=O)c1C/C=C(\C)CCC(=O)NO)C(=O)OC2` has a reported IC50 of 900

Memo: COc1c(C)c2c(c(O)c1C/C=C(\C)CCC(=O)NO)C(=O)OC2 [MYCOPHENOLIC HYDROXAMIC ACID] , reported IC50: 1000

* * *

Items are presented alongside their recorded Ratio.
Tested on: K562
assay comment: Induction of human K562 cells differentiation assessed as hemoglobin/genomic DNA level at 1 uM after 72 hrs relative to untreated control
Format: functional
Form field (numeric): enter value without unit.

Look over these answered cases.
{"molecule": "COC(=O)CC/C(C)=C/Cc1c(O)c2c(c(C)c1OC)COC2=O", "Ratio": 2.1}
{"molecule": "COc1c(C)c2c(c(OC(C)=O)c1C/C=C(\\C)CCC(=O)O)C(=O)OC2", "Ratio": 2.9}
{"molecule": "COc1c(C)c2c(c(O)c1C/C=C(\\C)CCC(=O)NO)C(=O)OC2 [MYCOPHENOLIC HYDROXAMIC ACID]", "Ratio": 0.8}

Next molecule, please.
For `C/C(=C\Cc1c(O)c(C)c2c(c1O)C(=O)OC2)CCC(=O)O` the molecule record lists Ratio as 1.4

* * *

tested on: Inosine-5'-monophosphate dehydrogenase 1 (Homo sapiens, UniProt P20839)
Sequence (P20839 whole entry): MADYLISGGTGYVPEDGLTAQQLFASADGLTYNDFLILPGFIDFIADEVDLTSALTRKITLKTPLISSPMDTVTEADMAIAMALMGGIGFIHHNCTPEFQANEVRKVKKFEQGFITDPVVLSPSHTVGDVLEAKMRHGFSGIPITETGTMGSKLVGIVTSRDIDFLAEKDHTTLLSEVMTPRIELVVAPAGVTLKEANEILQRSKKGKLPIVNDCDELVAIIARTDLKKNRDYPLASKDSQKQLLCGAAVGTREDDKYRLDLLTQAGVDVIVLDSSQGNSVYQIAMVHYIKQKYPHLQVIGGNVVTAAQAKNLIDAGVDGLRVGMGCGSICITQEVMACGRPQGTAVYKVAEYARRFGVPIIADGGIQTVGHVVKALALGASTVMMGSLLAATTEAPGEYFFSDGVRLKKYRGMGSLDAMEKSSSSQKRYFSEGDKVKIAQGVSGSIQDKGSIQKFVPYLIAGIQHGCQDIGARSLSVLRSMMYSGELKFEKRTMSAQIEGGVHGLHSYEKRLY
assay comment: Inhibition of human IMPDH1 expressed in Escherichia coli strain BL21(DE3) after 60 mins
observation type: pIC50
Field pIC50 (float): negative decimal logarithm of the concentration in molar.

{"compound": "COc1c(C)c2c(c(O)c1C/C=C(\\C)CCC(=O)NO)C(=O)OC2 [MYCOPHENOLIC HYDROXAMIC ACID]", "pIC50": 6.46}

pIC50 reading for `COc1c(C)c2c(c(O)c1C/C=C(\C)CCCO)C(=O)OC2` : 6.11

Lab note: `COc1c(C)c2c(c(O)c1C/C=C(\C)CCC(=O)O)C(=O)OC2` gave pIC50 of 7.72

Short answer for `C/C(=C\Cc1c(O)c(C)c2c(c1O)C(=O)OC2)CCC(=O)O` : pIC50 was 6.82

Reported pIC50 of `COc1c(C)c2c(c(OC(C)=O)c1C/C=C(\C)CCC(=O)O)C(=O)OC2` : 5.39

# compound `COC(=O)CC/C(C)=C/Cc1c(O)c2c(c(C)c1OC)COC2=O` ; its pIC50 = 5.82

Summary for this compound, `COc1c(C)c2c(c(OC)c1C/C=C(\C)CCC(=O)O)C(=O)OC2` : pIC50 is 4.17

* * *

Parameter: pIC50. Scope: all listed entries.
tested on: Inosine-5'-monophosphate dehydrogenase 2 (Homo sapiens)
assay comment: Inhibition of human IMPDH2 expressed in Escherichia coli strain BL21(DE3) after 60 mins
The value called pIC50 is obtained by taking minus log10 of the concentration in mol/L.

Sample answers from the record:
{"compound": "COC(=O)CC/C(C)=C/Cc1c(O)c2c(c(C)c1OC)COC2=O", "tested on": "Inosine-5'-monophosphate dehydrogenase 2 (Homo sapiens)", "observation type": "pIC50", "reported result": 5.85}
{"compound": "C/C(=C\\Cc1c(O)c(C)c2c(c1O)C(=O)OC2)CCC(=O)O", "tested on": "Inosine-5'-monophosphate dehydrogenase 2 (Homo sapiens)", "observation type": "pIC50", "reported result": 6.77}
{"compound": "COc1c(C)c2c(c(O)c1C/C=C(\\C)CCC(=O)NO)C(=O)OC2 [MYCOPHENOLIC HYDROXAMIC ACID]", "tested on": "Inosine-5'-monophosphate dehydrogenase 2 (Homo sapiens)", "observation type": "pIC50", "reported result": 6.38}
{"compound": "COc1c(C)c2c(c(O)c1C/C=C(\\C)CCCO)C(=O)OC2", "tested on": "Inosine-5'-monophosphate dehydrogenase 2 (Homo sapiens)", "observation type": "pIC50", "reported result": 6.10}
{"compound": "COc1c(C)c2c(c(OC)c1C/C=C(\\C)CCC(=O)O)C(=O)OC2", "tested on": "Inosine-5'-monophosphate dehydrogenase 2 (Homo sapiens)", "observation type": "pIC50", "reported result": 4.14}

Okay, next one:
Given the compound `COc1c(C)c2c(c(OC(C)=O)c1C/C=C(\C)CCC(=O)O)C(=O)OC2` and test system Inosine-5'-monophosphate dehydrogenase 2 (Homo sapiens), the measured pIC50 is 5.39

* * *

Species on record: Homo sapiens
assay comment: Selectivity ratio of IC50 for human IMPDH1 to IC50 for human IMPDH2
# binarize Ratio IC50: threshold 1 inclusive, high side criterion met, low side criterion not met

Worked set:
{"compound": "COc1c(C)c2c(c(O)c1C/C=C(\\C)CCCO)C(=O)OC2", "class label": "criterion not met"}
{"compound": "C/C(=C\\Cc1c(O)c(C)c2c(c1O)C(=O)OC2)CCC(=O)O", "class label": "criterion not met"}
{"compound": "COc1c(C)c2c(c(OC)c1C/C=C(\\C)CCC(=O)O)C(=O)OC2", "class label": "criterion not met"}
{"compound": "COc1c(C)c2c(c(O)c1C/C=C(\\C)CCC(=O)NO)C(=O)OC2 [MYCOPHENOLIC HYDROXAMIC ACID]", "class label": "criterion not met"}

Query compound follows.
Ask | Exam item: decide whether the reported Ratio IC50 for `COC(=O)CC/C(C)=C/Cc1c(O)c2c(c(C)c1OC)COC2=O` is at least 1.
Reply | criterion met

* * *

selectivity ratio for assorted molecules
Tested on: IMPDH2
assay comment: Selectivity ratio of IC50 for human K562 cells to IC50 for human IMPDH2
Assay type: ADME, cell-based
experimental context: K562 cells versus IMPDH2 enzyme, read-out: Ratio IC50
Write no unit; give the number alone.

Reference set, count: 4
{"molecule": "COc1c(C)c2c(c(OC(C)=O)c1C/C=C(\\C)CCC(=O)O)C(=O)OC2", "observation type": "selectivity ratio", "reported result": 0.14}
{"molecule": "COC(=O)CC/C(C)=C/Cc1c(O)c2c(c(C)c1OC)COC2=O", "observation type": "selectivity ratio", "reported result": 0.52}
{"molecule": "C/C(=C\\Cc1c(O)c(C)c2c(c1O)C(=O)OC2)CCC(=O)O", "observation type": "selectivity ratio", "reported result": 48}
{"molecule": "COc1c(C)c2c(c(O)c1C/C=C(\\C)CCCO)C(=O)OC2", "observation type": "selectivity ratio", "reported result": 4.9}

Pending molecule:
Reported selectivity ratio of COc1c(C)c2c(c(O)c1C/C=C(\C)CCC(=O)NO)C(=O)OC2 [MYCOPHENOLIC HYDROXAMIC ACID] : 5

Values compiled from ChEMBL document CHEMBL1287663.
